System: Enterobacter cloacae Nek 39
Assay: minimum inhibitory concentration, agar plate dilution method
Assay type: cell-based
Conditions: NEK39, E. cloacae Nek 39, inoculated amount of cells 10^6 CFU/ml, Muller-Hinton agar, read-out: minimum inhibitory concentration (M.I.C.)
attribute-measured: MIC (µg/mL)

Worked cases, MIC given:
* C[n+]1ccc(SCC2=C(C(=O)[O-])N3C(=O)[C@@H](NC(=O)/C(=N\OCc4cc(=O)c(O)cn4O)c4csc(N)n4)[C@H]3SC2)cc1 [Example 18] | 0.39
* Cc1cc(SCC2=C(C(=O)O)N3C(=O)[C@@H](NC(=O)/C(=N\OCc4cc(=O)c(O)cn4O)c4csc(N)n4)[C@H]3SC2)n2nc(C(=O)O)nc2n1 [Example 4] | 0.39

(a) Nc1nc(/C(=N/OCc2cc(=O)c(O)cn2O)C(=O)N[C@@H]2C(=O)N3C(C(=O)O)=C(CSc4nnnn4CCO)CS[C@H]23)cs1 [Example 6]
(b) CO/N=C(\C(=O)N[C@@H]1C(=O)N2C(C(=O)O)=C(COC(C)=O)CS[C@H]12)c1csc(N)n1 [CTX, cefotaxime, reference compound]
(c) Cn1nnnc1SCC1=C(C(=O)O)N2C(=O)[C@@H](NC(=O)/C(=N\OCc3cc(=O)c(O)cn3O)c3csc(N)n3)[C@H]2SC1 [Example 5]
(d) C[n+]1ccc(SCC2=C(C(=O)[O-])N3C(=O)[C@@H](NC(=O)/C(=N\OCc4cc(=O)c(O)cn4O)c4csc(N)n4)[C@H]3SC2)c2c1CCC2 [Example 19]
Your job: order these 4 records by MIC, ascending. Returns: the labels listed in the requested order.
d, c, a, b

* * *

Test system: Serratia marcescens No. 16-2
Assay: minimum inhibitory concentration, agar plate dilution method
Type: cell-based
Conditions: NO.162, S. marcescens No. 16-2, inoculated amount of cells 10^6 CFU/ml, Muller-Hinton agar, read-out: minimum inhibitory concentration (M.I.C.)
attribute-measured: MIC (µg/mL)

See these solved cases before continuing.
- Cn1nnnc1SCC1=C(C(=O)O)N2C(=O)[C@@H](NC(=O)/C(=N\OCc3cc(=O)c(O)cn3O)c3csc(N)n3)[C@H]2SC1 [Example 5]: 0.39
- Nc1nc(/C(=N/OCc2cc(=O)c(O)cn2O)C(=O)N[C@@H]2C(=O)N3C(C(=O)O)=C(CSc4nnnn4CCO)CS[C@H]23)cs1 [Example 6]: 0.39

(1) Cc1cc(SCC2=C(C(=O)O)N3C(=O)[C@@H](NC(=O)/C(=N\OCc4cc(=O)c(O)cn4O)c4csc(N)n4)[C@H]3SC2)n2nc(C(=O)O)nc2n1 [Example 4]
(2) C[n+]1ccc(SCC2=C(C(=O)[O-])N3C(=O)[C@@H](NC(=O)/C(=N\OCc4cc(=O)c(O)cn4O)c4csc(N)n4)[C@H]3SC2)cc1 [Example 18]
(3) C[n+]1ccc(SCC2=C(C(=O)[O-])N3C(=O)[C@@H](NC(=O)/C(=N\OCc4cc(=O)c(O)cn4O)c4csc(N)n4)[C@H]3SC2)c2c1CCC2 [Example 19]
(4) CO/N=C(\C(=O)N[C@@H]1C(=O)N2C(C(=O)O)=C(COC(C)=O)CS[C@H]12)c1csc(N)n1 [CTX, cefotaxime, reference compound]
With regard to MIC, arrange the entries in ascending order, please. Answer format: the labels, in the requested order.
1, 2, 3, 4

* * *

Tested on: Pseudomonas cepacia 23
Test: minimum inhibitory concentration, agar plate dilution method
Format: cell-based
Details: Burkholderia cepacia; P. cepacia 23; inoculated amount of cells 10^6 CFU/ml; Muller-Hinton agar; read-out: minimum inhibitory concentration (M.I.C.)
attribute-measured: MIC (µg/mL)

(1) CO/N=C(\C(=O)N[C@@H]1C(=O)N2C(C(=O)O)=C(COC(C)=O)CS[C@H]12)c1csc(N)n1 [CTX, cefotaxime, reference compound]
(2) Cn1nnnc1SCC1=C(C(=O)O)N2C(=O)[C@@H](NC(=O)/C(=N\OCc3cc(=O)c(O)cn3O)c3csc(N)n3)[C@H]2SC1
(3) Cc1cc(SCC2=C(C(=O)O)N3C(=O)[C@@H](NC(=O)/C(=N\OCc4cc(=O)c(O)cn4O)c4csc(N)n4)[C@H]3SC2)n2nc(C(=O)O)nc2n1
(4) C[n+]1ccc(SCC2=C(C(=O)[O-])N3C(=O)[C@@H](NC(=O)/C(=N\OCc4cc(=O)c(O)cn4O)c4csc(N)n4)[C@H]3SC2)c2c1CCC2
Sort entries by MIC from minimum to maximum value. Answer format: list of labels, ordered as asked.
2, 3, 4, 1
(2: 0.05 µg/mL, 3: 0.2 µg/mL, 4: 0.39 µg/mL, 1: 3.13 µg/mL)

* * *

System: Pseudomonas cepacia 23
Experiment: minimum inhibitory concentration, agar plate dilution method
Assay type: cell-based
Details: Burkholderia cepacia; P. cepacia 23; inoculated amount of cells 10^6 CFU/ml; Muller-Hinton agar; read-out: minimum inhibitory concentration (M.I.C.)
attribute-measured: MIC (µg/mL)

(I) Nc1nc(/C(=N/OCc2cc(=O)c(O)cn2O)C(=O)N[C@@H]2C(=O)N3C(C(=O)O)=C(CSc4nnnn4CCO)CS[C@H]23)cs1
(II) C[n+]1ccc(SCC2=C(C(=O)[O-])N3C(=O)[C@@H](NC(=O)/C(=N\OCc4cc(=O)c(O)cn4O)c4csc(N)n4)[C@H]3SC2)cc1
Which of the two items, I and II , has the greater recorded MIC? I would appreciate it if you answered with the label of your choice.
II
